tested on: gram positive and gram negative bacteria; assay: Suspension test for bactericidal activity (modified EN 1040), residual cell count; format: cell-based; conditions: E. coli, contact time 24 h
molecules and their reported residual cell count (cfu/ml) after set contact time

Worked examples, 4 molecules total:
• CC1=Cc2c(cc(C)oc2=O)OC1c1ccco1 (centres unmarked) [P-5] = 4.0 × 10^2 cfu/ml
• CCCC1C=Cc2c(cc(C)oc2=O)O1 (centres unmarked) [P-6] = <100 cfu/ml
• CC1=Cc2c(cc(C)oc2=O)OC1C (centres unmarked) [P-1] = <100 cfu/ml
• CC(C)=CCCC1(C)C=Cc2c(cc(C)oc2=O)O1 (centres unmarked) [P-3] = <100 cfu/ml

Qu. Using known records, supply residual cell count (cfu/ml) after set contact time for Cc1cc2c(c(=O)o1)C=CC(C)(C)O2 [P-4]
Ans. <100 cfu/ml
